Item-by-item account of fraction unbound at 4 h, 5 µM
Protocol notes: Protein binding in human plasma assessed as […] at 5 uM for 4 hrs by LC-MS/MS analysis
Assay type: ADME, cell-free
Measurement conditions: read-out: PPB

| Smiles str | fraction unbound at 4 h, 5 µM |
| --- | --- |
| CCN(CC)S(=O)(=O)/N=C(/N=C(/C)N)N1C[C@H](c2ccccc2)C(c2ccc(Cl)cc2)=N1 | ≤ 0.006 |
| CS/C(N)=N/C(=N/S(=O)(=O)N1CCC(C(F)(F)F)CC1)N1C[C@H](c2ccccc2)C(c2ccc(Cl)cc2)=N1 | ≤ 0.006 |
| C/C(N)=N\C(=N\S(=O)(=O)N1CCCCC1)N1C[C@H](c2ccccc2)C(c2ccc(Cl)cc2)=N1 | ≤ 0.006 |

----------
Item-by-item account of pKi
Assay system: Cannabinoid receptor 1 (Homo sapiens)
Protocol notes: Displacement of [3H]- CP55940 from human CB1R expressed in CHO-K1 cells membrane by Cheng-Prusoff equation analysis
Format: cell membranes, Cell membrane
Measurement conditions: read-out: Ki
pKi: −log10 of the molar value.

| Molecule | Assay system | pKi |
| --- | --- | --- |
| CS/C(N)=N\C(=N\S(=O)(=O)N1CCC(F)(F)CC1)N1CC(c2ccccc2)C(c2ccc(Cl)cc2)=N1 (centres undefined) | Cannabinoid receptor 1 (Homo sapiens) | 7.85 |
| C/C(N)=N/C(=N/S(=O)(=O)N1CCCC1)N1CC(c2ccccc2)C(c2ccc(Cl)cc2)=N1 (centres undefined) | Cannabinoid receptor 1 (Homo sapiens) | 8.13 |
| C/C(N)=N\C(=N\S(=O)(=O)N1CCCCC1)N1C[C@@H](c2ccccc2)C(c2ccc(Cl)cc2)=N1 | Cannabinoid receptor 1 (Homo sapiens) | 6.21 |
| N/C(=N\C(=N\S(=O)(=O)N1CCC(C(F)(F)F)CC1)N1CC(c2ccccc2)C(c2ccc(Cl)cc2)=N1)c1ccc(F)cc1 (centres undefined) | Cannabinoid receptor 1 (Homo sapiens) | 7.70 |

----------
Assay system: Cannabinoid receptor 2 (Homo sapiens, UniProt P34972)
Sequence (P34972 whole entry): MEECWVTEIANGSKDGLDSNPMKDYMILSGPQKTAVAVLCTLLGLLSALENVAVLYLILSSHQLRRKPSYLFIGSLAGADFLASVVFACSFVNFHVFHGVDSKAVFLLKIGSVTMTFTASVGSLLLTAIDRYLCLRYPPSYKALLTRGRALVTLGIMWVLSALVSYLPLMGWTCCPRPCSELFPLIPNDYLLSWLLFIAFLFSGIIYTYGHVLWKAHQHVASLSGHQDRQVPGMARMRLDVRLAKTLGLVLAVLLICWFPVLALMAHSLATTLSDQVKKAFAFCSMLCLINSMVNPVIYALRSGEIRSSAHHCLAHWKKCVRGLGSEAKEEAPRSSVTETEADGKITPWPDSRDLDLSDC
Protocol notes: Displacement of [3H]- CP55940 from human CB2R expressed in CHO-K1 cells membrane by Cheng-Prusoff equation analysis
Format: cell membranes, Cell membrane
Measurement conditions: read-out: Ki
pKi: −log10 of the molar value.
Item-by-item account of pKi

| Compound | Op | pKi |
| --- | --- | --- |
| CS/C(N)=N/C(=N/S(=O)(=O)N1CCC(C(F)(F)F)CC1)N1CC(c2ccccc2)C(c2ccc(Cl)cc2)=N1 (configuration not stated) | < | 7.00 |
| CCN(CC)S(=O)(=O)/N=C(/N=C(/C)N)N1C[C@H](c2ccccc2)C(c2ccc(Cl)cc2)=N1 | = | 7.18 |
| N/C(=N\C(=N\S(=O)(=O)N1CCC(C(F)(F)F)CC1)N1CC(c2ccccc2)C(c2ccc(Cl)cc2)=N1)c1ccc(Cl)cc1 (configuration not stated) | = | 7.70 |
| CC(C)(C)/C(N)=N/C(=N/S(=O)(=O)N1CCC(F)(F)CC1)N1CC(c2ccccc2)C(c2ccc(Cl)cc2)=N1 (configuration not stated) | < | 6.00 |
| N/C(=N\C(=N\S(=O)(=O)N1CCC(C(F)(F)F)CC1)N1CC(c2ccccc2)C(c2ccc(Cl)cc2)=N1)c1ccc(F)cc1 (configuration not stated) | = | 7.85 |
| C/C(N)=N/C(=N/S(=O)(=O)N1CCCC1)N1CC(c2ccccc2)C(c2ccc(Cl)cc2)=N1 (configuration not stated) | < | 6.00 |
| CS/C(N)=N/C(=N/S(=O)(=O)N1CCC(C(F)(F)F)CC1)N1C[C@H](c2ccccc2)C(c2ccc(Cl)cc2)=N1 | = | 6.48 |

----------
Item-by-item account of half-life
Protocol notes: Stability in C57BL/6J mouse plasma assessed as half life at 3 mg/kg, ip by LC-MS/MS analysis
Format: ADME, organism-based

| Smiles str | half-life |
| --- | --- |
| CCN(CC)S(=O)(=O)/N=C(/N=C(/C)N)N1C[C@H](c2ccccc2)C(c2ccc(Cl)cc2)=N1 | < 2 h |
| C/C(N)=N\C(=N\S(=O)(=O)N1CCCCC1)N1C[C@H](c2ccccc2)C(c2ccc(Cl)cc2)=N1 | < 2 h |
| CS/C(N)=N/C(=N/S(=O)(=O)N1CCC(C(F)(F)F)CC1)N1C[C@H](c2ccccc2)C(c2ccc(Cl)cc2)=N1 | < 2 h |

----------
Assay system: Cannabinoid receptor 2 (Homo sapiens)
Protocol notes: Displacement of [3H]- CP55940 from human CB2R expressed in CHO-K1 cells membrane by Cheng-Prusoff equation analysis
Type: cell membranes, Cell membrane
Measurement conditions: read-out: Ki
pKi: −log10 of the molar value.

| Molecule | pKi |
| --- | --- |
| N/C(=N\C(=N\S(=O)(=O)N1CCC(F)(F)CC1)N1CC(c2ccccc2)C(c2ccc(Cl)cc2)=N1)c1ccc(F)cc1 (stereo unspecified) | 7.55 |
| CC(C)(C)/C(N)=N/C(=N/S(=O)(=O)N1CCOCC1)N1CC(c2ccccc2)C(c2ccc(Cl)cc2)=N1 (stereo unspecified) | < 6.00 |
| N/C(=N/C(=N/S(=O)(=O)N1CCCCC1)N1CC(c2ccccc2)C(c2ccc(Cl)cc2)=N1)c1ccc(Cl)cc1 (stereo unspecified) | 7.77 |
| CS/C(N)=N\C(=N\S(=O)(=O)N1CCC(F)(F)CC1)N1CC(c2ccccc2)C(c2ccc(Cl)cc2)=N1 (stereo unspecified) | < 7.00 |
| CC(C)(C)/C(N)=N/C(=N/S(=O)(=O)N1CCCC1)N1CC(c2ccccc2)C(c2ccc(Cl)cc2)=N1 (stereo unspecified) | < 6.00 |
| CS/C(N)=N\C(=N\S(=O)(=O)N1CCCCC1)N1CC(c2ccccc2)C(c2ccc(Cl)cc2)=N1 (stereo unspecified) | < 7.00 |
| C/C(N)=N\C(=N\S(=O)(=O)N1CCCCC1)N1CC(c2ccccc2)C(c2ccc(Cl)cc2)=N1 (stereo unspecified) | < 7.00 |
| CCN(CC)S(=O)(=O)/N=C(/N=C(/C)N)N1CC(c2ccccc2)C(c2ccc(Cl)cc2)=N1 (stereo unspecified) | < 7.00 |
| C/C(N)=N\C(=N\S(=O)(=O)N1CCCCC1)N1C[C@@H](c2ccccc2)C(c2ccc(Cl)cc2)=N1 | < 6.00 |
| N/C(=N\C(=N\S(=O)(=O)N1CCOCC1)N1CC(c2ccccc2)C(c2ccc(Cl)cc2)=N1)c1ccc(F)cc1 (stereo unspecified) | < 6.00 |
| N/C(=N\C(=N\S(=O)(=O)N1CCC(F)(F)CC1)N1CC(c2ccccc2)C(c2ccc(Cl)cc2)=N1)c1ccc(Cl)cc1 (stereo unspecified) | < 6.00 |
| CCN(CC)S(=O)(=O)/N=C(/N=C(\N)c1ccc(Cl)cc1)N1CC(c2ccccc2)C(c2ccc(Cl)cc2)=N1 (stereo unspecified) | 7.15 |
| CS/C(N)=N/C(=N/S(=O)(=O)N1CCC(C(F)(F)F)CC1)N1C[C@@H](c2ccccc2)C(c2ccc(Cl)cc2)=N1 | < 6.00 |
| N/C(=N\C(=N\S(=O)(=O)N1CCOCC1)N1CC(c2ccccc2)C(c2ccc(Cl)cc2)=N1)c1ccc(Cl)cc1 (stereo unspecified) | < 6.00 |
| CCN(CC)S(=O)(=O)/N=C(/N=C(\N)C(C)(C)C)N1CC(c2ccccc2)C(c2ccc(Cl)cc2)=N1 (stereo unspecified) | < 6.00 |
| C/C(N)=N/C(=N/S(=O)(=O)N1CCC(C(F)(F)F)CC1)N1CC(c2ccccc2)C(c2ccc(Cl)cc2)=N1 (stereo unspecified) | < 7.00 |

----------
Assay system: Cannabinoid receptor 1 (Homo sapiens, UniProt P21554)
Sequence (P21554 whole entry): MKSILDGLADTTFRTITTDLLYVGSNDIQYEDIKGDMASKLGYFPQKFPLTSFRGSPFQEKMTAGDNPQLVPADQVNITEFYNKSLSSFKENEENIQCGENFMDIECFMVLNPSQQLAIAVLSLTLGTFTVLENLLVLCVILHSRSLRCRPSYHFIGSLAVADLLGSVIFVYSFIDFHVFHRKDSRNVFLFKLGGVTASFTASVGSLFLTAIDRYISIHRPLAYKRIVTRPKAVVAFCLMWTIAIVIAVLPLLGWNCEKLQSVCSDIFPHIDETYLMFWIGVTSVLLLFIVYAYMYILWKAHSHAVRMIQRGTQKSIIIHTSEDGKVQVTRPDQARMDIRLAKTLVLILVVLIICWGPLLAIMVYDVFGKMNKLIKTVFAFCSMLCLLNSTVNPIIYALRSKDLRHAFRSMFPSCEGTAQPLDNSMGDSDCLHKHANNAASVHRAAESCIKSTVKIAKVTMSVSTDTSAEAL
Protocol notes: Displacement of [3H]- CP55940 from human CB1R expressed in CHO-K1 cells membrane by Cheng-Prusoff equation analysis
Format: cell membranes, Cell membrane
Measurement conditions: read-out: Ki
pKi: −log10 of the molar value.
Experimental endpoint: pKi

| Compound | Op | Measurement |
| --- | --- | --- |
| C/C(N)=N\C(=N\S(=O)(=O)N1CCC(F)(F)CC1)N1CC(c2ccccc2)C(c2ccc(Cl)cc2)=N1 (stereo unspecified) | = | 8.47 |
| CC(C)(C)/C(N)=N/C(=N/S(=O)(=O)N1CCOCC1)N1CC(c2ccccc2)C(c2ccc(Cl)cc2)=N1 (stereo unspecified) | < | 7.00 |
| CCN(CC)S(=O)(=O)/N=C(/N=C(/C)N)N1CC(c2ccccc2)C(c2ccc(Cl)cc2)=N1 (stereo unspecified) | = | 8.23 |
| CS/C(N)=N/C(=N/S(=O)(=O)N1CCCC1)N1CC(c2ccccc2)C(c2ccc(Cl)cc2)=N1 (stereo unspecified) | = | 7.64 |
| N/C(=N\C(=N\S(=O)(=O)N1CCC(F)(F)CC1)N1CC(c2ccccc2)C(c2ccc(Cl)cc2)=N1)c1ccc(Cl)cc1 (stereo unspecified) | = | 8.26 |
| N/C(=N\C(=N\S(=O)(=O)N1CCC(C(F)(F)F)CC1)N1CC(c2ccccc2)C(c2ccc(Cl)cc2)=N1)c1ccc(Cl)cc1 (stereo unspecified) | = | 8.26 |
| N/C(=N\C(=N\S(=O)(=O)N1CCCC1)N1CC(c2ccccc2)C(c2ccc(Cl)cc2)=N1)c1ccc(F)cc1 (stereo unspecified) | = | 7.98 |
| CS/C(N)=N/C(=N/S(=O)(=O)N1CCC(C(F)(F)F)CC1)N1C[C@H](c2ccccc2)C(c2ccc(Cl)cc2)=N1 | = | 9.15 |
| CCN(CC)S(=O)(=O)/N=C(/N=C(\N)c1ccc(Cl)cc1)N1CC(c2ccccc2)C(c2ccc(Cl)cc2)=N1 (stereo unspecified) | = | 7.97 |
| CCN(CC)S(=O)(=O)/N=C(/N=C(\N)SC)N1CC(c2ccccc2)C(c2ccc(Cl)cc2)=N1 (stereo unspecified) | = | 7.89 |
| CS/C(N)=N/C(=N/S(=O)(=O)N1CCOCC1)N1CC(c2ccccc2)C(c2ccc(Cl)cc2)=N1 (stereo unspecified) | = | 7.39 |
| CC(C)(C)/C(N)=N\C(=N\S(=O)(=O)N1CCCCC1)N1CC(c2ccccc2)C(c2ccc(Cl)cc2)=N1 (stereo unspecified) | = | 7.64 |
| CCN(CC)S(=O)(=O)/N=C(/N=C(\N)C(C)(C)C)N1CC(c2ccccc2)C(c2ccc(Cl)cc2)=N1 (stereo unspecified) | = | 8.00 |
| N/C(=N\C(=N\S(=O)(=O)N1CCOCC1)N1CC(c2ccccc2)C(c2ccc(Cl)cc2)=N1)c1ccc(F)cc1 (stereo unspecified) | = | 7.40 |
| CS/C(N)=N\C(=N\S(=O)(=O)N1CCCCC1)N1CC(c2ccccc2)C(c2ccc(Cl)cc2)=N1 (stereo unspecified) | = | 7.82 |
| N/C(=N\C(=N\S(=O)(=O)N1CCC(F)(F)CC1)N1CC(c2ccccc2)C(c2ccc(Cl)cc2)=N1)c1ccc(F)cc1 (stereo unspecified) | = | 8.48 |
| N/C(=N/C(=N/S(=O)(=O)N1CCCCC1)N1CC(c2ccccc2)C(c2ccc(Cl)cc2)=N1)c1ccc(Cl)cc1 (stereo unspecified) | = | 8.11 |
| CS/C(N)=N/C(=N/S(=O)(=O)N1CCC(C(F)(F)F)CC1)N1CC(c2ccccc2)C(c2ccc(Cl)cc2)=N1 (stereo unspecified) | = | 8.62 |
| CCN(CC)S(=O)(=O)/N=C(/N=C(/C)N)N1C[C@H](c2ccccc2)C(c2ccc(Cl)cc2)=N1 | = | 8.92 |
| CC(C)(C)/C(N)=N/C(=N/S(=O)(=O)N1CCCC1)N1CC(c2ccccc2)C(c2ccc(Cl)cc2)=N1 (stereo unspecified) | < | 6.00 |
| C/C(N)=N\C(=N\S(=O)(=O)N1CCCCC1)N1CC(c2ccccc2)C(c2ccc(Cl)cc2)=N1 (stereo unspecified) | = | 8.52 |
| C/C(N)=N/C(=N/S(=O)(=O)N1CCOCC1)N1CC(c2ccccc2)C(c2ccc(Cl)cc2)=N1 (stereo unspecified) | = | 7.51 |
| N/C(=N\C(=N\S(=O)(=O)N1CCCC1)N1CC(c2ccccc2)C(c2ccc(Cl)cc2)=N1)c1ccc(Cl)cc1 (stereo unspecified) | = | 7.12 |
| CC(C)(C)/C(N)=N/C(=N/S(=O)(=O)N1CCC(F)(F)CC1)N1CC(c2ccccc2)C(c2ccc(Cl)cc2)=N1 (stereo unspecified) | = | 7.68 |
| N/C(=N\C(=N\S(=O)(=O)N1CCOCC1)N1CC(c2ccccc2)C(c2ccc(Cl)cc2)=N1)c1ccc(Cl)cc1 (stereo unspecified) | = | 7.72 |
| CCN(CC)S(=O)(=O)/N=C(/N=C(\N)c1ccc(F)cc1)N1CC(c2ccccc2)C(c2ccc(Cl)cc2)=N1 (stereo unspecified) | = | 8.26 |
| CS/C(N)=N/C(=N/S(=O)(=O)N1CCC(C(F)(F)F)CC1)N1C[C@@H](c2ccccc2)C(c2ccc(Cl)cc2)=N1 | < | 6.00 |
| N/C(=N/C(=N/S(=O)(=O)N1CCCCC1)N1CC(c2ccccc2)C(c2ccc(Cl)cc2)=N1)c1ccc(F)cc1 (stereo unspecified) | = | 8.19 |
| C/C(N)=N\C(=N\S(=O)(=O)N1CCCCC1)N1C[C@H](c2ccccc2)C(c2ccc(Cl)cc2)=N1 | = | 8.80 |
| CC(C)(C)/C(N)=N/C(=N/S(=O)(=O)N1CCC(C(F)(F)F)CC1)N1CC(c2ccccc2)C(c2ccc(Cl)cc2)=N1 (stereo unspecified) | = | 8.96 |
| C/C(N)=N/C(=N/S(=O)(=O)N1CCC(C(F)(F)F)CC1)N1CC(c2ccccc2)C(c2ccc(Cl)cc2)=N1 (stereo unspecified) | = | 8.41 |
